Values compiled from PubChem BioAssay (NCI).

# System: MDA-MB-468 breast
# Assay Protocol: NCI-60 one-dose screen, 48 h
# Settings: 10 µM unless noted
The panel holds about 83,000 compounds, 20% with a hit somewhere; the sample as a whole holds those more often. Activity calls are given as the source filed them. How the source made its calls: active means growth percent below 10; inactive means the rest.
Outcomes you can answer with include only these: true = active, false = inactive

For COc1cnc2c(c1)C(=O)c1c-2n(CCCn2ccnc2)c(=O)c2cc(OC)c(OC)cc12 , which call appears in the assay record?
true

Short answer needed: outcome of this test for COc1ccc2oc3c(C)c4c(c(C)c3c2c1)C(=O)N(Cc1ccccc1)C4=O ?
false

Could you check what this test reported for COc1ccc(C(=O)C/C(=C\c2ccc(Cl)cc2)C(=O)NCc2ccccc2)cc1 ?
false

Tell me the recorded outcome of this test for CCN1CCN(CCC(=O)Nc2cccc(-n3cc(-c4ccncc4)c(-c4ccc(Cl)c(OC)c4)n3)c2)CC1 .
true

Please let me know the test result on file for CN(C)CCOc1ccc(-c2nc3ccc(-c4nc5ccc(N6CCN(C)CC6)cc5[nH]4)cc3[nH]2)cc1 .
false

Answer briefly: the call reported for C=C1C(=O)O[C@H]2[C@H]1CC/C(COC(=O)NCCc1c[nH]c3ccc(OC)cc13)=C\CC[C@@]1(C)O[C@@H]21 in this assay.
true

Dear colleague, could you share the recorded outcome for CCc1ccc(Cc2cnc(NC(=O)c3cc(C)oc3C)s2)cc1 when you have a moment?
true

Give the logged outcome of this assay for the following compound: CC/C=C\C/C=C\C[C@H]1C/C=C2/C(=O)C=C[C@@H]2C/C=C\CCC(=O)O1
true

How was O=C(CSc1nnc(-c2ccc3nc(-c4ccc(Cl)cc4)[nH]c3c2)o1)Nc1ccc(C(=O)/C=C/c2ccc(Cl)cc2)cc1 classified in this test?
false

Entry CC(=O)CC(c1ccccc1)c1c(C)[nH]c2ccccc12 (centres undefined) : call = ?
false

// outcome(item) with item = O=C(NNc1nc2cc(F)c(F)cc2n2cccc12)c1cnccn1
false

GET /call?item= C#Cc1ccc(-n2c(/C=C/c3ccc4ccccc4n3)nc3ncccc3c2=O)cc1 returns the recorded outcome of this test.
true

Check the results log: what was the call for COc1ccc(-c2cc(C(=O)Nc3ccc(Br)cc3)nc3[nH]c(=O)sc23)cc1 ?
false

Returns: the outcome recorded for COc1cc(CNC(=O)/C=C/C=C/c2ccc3c(c2)OCO3)ccc1OCc1cn(-c2ccc(C)c(C)c2)nn1 in this assay.
false

In this assay, the call recorded for Cc1ccc(C(=O)/C(=C/c2ccc([N+](=O)[O-])cc2)SCc2ccc(Cl)cc2)cc1 was what?
false

Which outcome was entered for the compound CC(=O)[C@@]12O[C@](C)(c3ccccc3)O[C@@H]1CC1C3CCC4=CC(=O)CC[C@]4(C)C3CC[C@@]12C (some centres undefined) in this test?
false

Outcome logged for COc1ccc([C@@H]2[C@@H](Cl)C(=O)N2c2cc(OC)c(OC)c(OC)c2)cc1C in this assay:
false

What was the test verdict on COc1ccc([C@H]2C(=O)N(c3cc(OC)c(OC)c(OC)c3)[C@@H]2c2ccc(OC)c(O)c2)cc1 ?
true

What classification did C=CCN1C(=O)c2ccccc2C1=O end up with in this test?
false
